Each recorded value in this set is attributed to the supplement of paper PMC10037445.

System: RAW-Dual
Experiment: NF-kB SEAP reporter activity, fold change vs agonist alone; cytotoxicity flag (confluency mask): not cytotoxic; higher = enhanced NF-kB activity
Settings: agonist: Pam3CSK4 (TLR2/1) 0.1 ug/mL
The full ranking holds about 2,900 compounds; the median of “NF-kB SEAP reporter activity, fold change vs agonist alone” is about 0.99, and the highest 2% start at about 2.6. Shown is part of a subset that was picked to be rich in the highest values.
TEST READOUT: NF-kB SEAP reporter activity

Would you please look over these solved cases?
COMPOUND	RECORDED RESULT
O=C(c1ccc(C(=O)N2CCC(N3CCCC3)CC2)c(Nc2ccccc2)c1)N1CCC(N2CCCC2)CC1 (library stock concentration (final ~1000-fold dilution): 10 mM)	1.33
CCOc1cc(N2CCC(O)CC2)ccc1Nc1ncc2c(n1)N(C)c1ccccc1C(=O)N2C (library stock concentration (final ~1000-fold dilution): 10 mM)	1.48
CC(C)(C)N.CCCC(NC(C)C(=O)N1C(C(=O)O)CC2CCCCC21)C(=O)OCC (centres undefined) (library stock concentration (final ~1000-fold dilution): 10 mM water)	1.02

We next turn to a different compound, shown below.
# input Please tell me: NF-kB SEAP reporter activity of COc1ccc(Cn2ccc3ccc(C(=O)NO)cc32)cc1 (library stock concentration (final ~1000-fold dilution): 10 mM) , system RAW-Dual?
# output 0.588

====

Tested on: RAW-Dual
Assay: NF-kB SEAP reporter activity, fold change vs agonist alone; cytotoxicity flag (confluency mask): not cytotoxic; higher = enhanced NF-kB activity
Conditions: agonist: ODN 1826 (TLR9) 0.5 ug/mL
Whole data set: some 2,900 compounds, median “NF-kB SEAP reporter activity, fold change vs agonist alone” near 0.99, cut for the highest 2% near 2.6. Shown is part of a subset that was picked to be rich in the highest values.
Use criterion met when the recorded NF-kB SEAP reporter activity is no lower than 0.9; use criterion not met when it is lower.

Sample answers from the record:
COMPOUND	LABEL
COc1ccccc1Nc1nc(-c2sc(NC(C)=O)nc2C)cs1 (library stock concentration (final ~1000-fold dilution): 10 mM)	criterion not met
COc1cccc(-c2c(C)n(Cc3c(F)cccc3C(F)(F)F)c(=O)n(CC(NCCCC(=O)O)c3ccccc3)c2=O)c1F (stereo not drawn) (library stock concentration (final ~1000-fold dilution): 10 mM)	criterion met
CC(C)(CNC(=O)c1cccc(-c2noc(C(F)(F)F)n2)c1)c1coc(-c2ccccc2)n1 (library stock concentration (final ~1000-fold dilution): 10 mM)	criterion met
COc1ccc(CNC(=O)Nc2ncc([N+](=O)[O-])s2)cc1 (library stock concentration (final ~1000-fold dilution): 10 mM)	criterion met
CCC(C)SSc1ncc[nH]1 (stereo not drawn) (library stock concentration (final ~1000-fold dilution): 10 mM)	criterion met

# input // inclusive: NF-kB SEAP reporter activity at least 0.9? input: COc1ccc(S(=O)(=O)NCc2ccc(C(=O)NCCc3ccc(Cl)cn3)cc2)cc1 (library stock concentration (final ~1000-fold dilution): 10 mM)
# output criterion met

# input // inclusive: NF-kB SEAP reporter activity at least 0.9? input: N=C(N)Nc1nc(CSCCC(=N)NS(N)(=O)=O)cs1 (library stock concentration (final ~1000-fold dilution): 10 mM)
# output criterion met

# input // inclusive: NF-kB SEAP reporter activity at least 0.9? input: N#C/C(C(=O)c1ccc(Cl)cc1Cl)=C1\NC(=O)c2ccccc2N1 (library stock concentration (final ~1000-fold dilution): 10 mM)
# output criterion met

# input // inclusive: NF-kB SEAP reporter activity at least 0.9? input: CNC(=O)c1cccc(-c2ccc3c(N4CCOCC4C)nc(N4CCOCC4C)nc3n2)c1 (stereo not drawn) (library stock concentration (final ~1000-fold dilution): 10 mM)
# output criterion not met

# input // inclusive: NF-kB SEAP reporter activity at least 0.9? input: C[C@H]1[C@@H](O)O[C@@H]2OC3(C)CC[C@H]4[C@H](C)CC[C@@H]1[C@@]24OO3 (library stock concentration (final ~1000-fold dilution): 10 mM)
# output criterion met

# input // inclusive: NF-kB SEAP reporter activity at least 0.9? input: Cc1ncc(NC(=O)c2cccc(C(F)(F)F)c2)cc1-c1cnc(OC2CCOCC2)c(N2CCOCC2)c1 (library stock concentration (final ~1000-fold dilution): 10 mM)
# output criterion met

# input // inclusive: NF-kB SEAP reporter activity at least 0.9? input: CC(=O)OC1(C(C)=O)CCC2C3C=C(C)C4=CC(=O)CCC4(C)C3CCC21C (stereo not drawn) (library stock concentration (final ~1000-fold dilution): 10 mM)
# output criterion met

# input // inclusive: NF-kB SEAP reporter activity at least 0.9? input: O=C1CN(/N=C/c2ccc([N+](=O)[O-])o2)C(=O)N1 (library stock concentration (final ~1000-fold dilution): 10 mM)
# output criterion not met

# input // inclusive: NF-kB SEAP reporter activity at least 0.9? input: CN1C(=N)NC(C)(c2cc(NC(=O)c3ccc(F)cn3)ccc2F)CS1(=O)=O (stereo not drawn) (library stock concentration (final ~1000-fold dilution): 10 mM)
# output criterion not met

# input // inclusive: NF-kB SEAP reporter activity at least 0.9? input: COc1ccc(C(NC(=O)c2cnc(-c3cccnn3)nc2O)c2ccc(OC)cc2)cc1 (library stock concentration (final ~1000-fold dilution): 10 mM)
# output criterion not met

# input // inclusive: NF-kB SEAP reporter activity at least 0.9? input: CC(C)C(NC(=O)C(CC(=O)O)NC(=O)C(CCCCN)NC(=O)C(N)CCCNC(=N)N)C(=O)NC(Cc1ccc(O)cc1)C(=O)O (stereo not drawn) (library stock concentration (final ~1000-fold dilution): 10 mM)
# output criterion met

====

Tested on: RAW-Dual
Assay: NF-kB SEAP reporter activity, fold change vs agonist alone; cytotoxicity flag (confluency mask): not cytotoxic; higher = enhanced NF-kB activity
Settings: agonist: Pam2CSK4 (TLR2/6) 0.1 ug/mL
Whole data set: some 2,900 compounds, median “NF-kB SEAP reporter activity, fold change vs agonist alone” near 0.99, cut for the highest 2% near 2.6. The sample holds the highest values, similar compounds and a random draw of the others, so the mix is not that of the screen.
TEST READOUT: NF-kB SEAP reporter activity
Give bare numbers.

Would you please look over these solved cases?
COMPOUND	NF-kB SEAP reporter activity
COc1cc2c(cc1NS(=O)(=O)c1ccc(Br)cc1C)n(C)c(=O)n2C (library stock concentration (final ~1000-fold dilution): 10 mM)	0.828
Cc1cc(Nc2ccc(NC(=O)c3ccc(Nc4ccnc5ccccc45)cc3)cc2)nc(N)n1 (library stock concentration (final ~1000-fold dilution): 10 mM)	0.856
C=CC(=O)N1CCCC(n2nc(-c3ccc(Oc4ccccc4)cc3)c(C(N)=O)c2N)C1 (centres undefined) (library stock concentration (final ~1000-fold dilution): 10 mM)	0.224

We next turn to a different compound, shown below.
# input Returns the measured NF-kB SEAP reporter activity for the input compound. Input: O=C(Nc1ccncc1)c1cc([N+](=O)[O-])ccc1Cl (library stock concentration (final ~1000-fold dilution): 10 mM)
# output 0.853

====

Kindly state NF-kB SEAP reporter activity for each of the entries shown.
Tested on: RAW-Dual
Assay: NF-kB SEAP reporter activity, fold change vs agonist alone; cytotoxicity flag (confluency mask): cytotoxic (confluency <70% of control); higher = enhanced NF-kB activity
Details: agonist: Pam3CSK4 (TLR2/1) 0.1 ug/mL
The full ranking holds about 2,900 compounds; the median of “NF-kB SEAP reporter activity, fold change vs agonist alone” is about 0.99, and the highest 2% start at about 2.6. The list comes from a sample in which the highest values are over-represented; it also holds close analogues and randomly drawn compounds.
Numbers only.

COMPOUND	NF-kB SEAP reporter activity
COc1cc2c(Oc3ccc4[nH]c(C)cc4c3F)ncnc2cc1OCCCN1CCCC1.O=C(O)/C=C\C(=O)O (library stock concentration (final ~1000-fold dilution): 10 mM)	1.15
COc1cc2c(Oc3ccc4[nH]c(C)cc4c3F)ncnc2cc1OCCCN1CCCC1 (library stock concentration (final ~1000-fold dilution): 10 mM)	1.37
CS(=O)(=O)O.Fc1ccc(C2CCNCC2COc2ccc3c(c2)OCO3)cc1 (stereo unspecified) (library stock concentration (final ~1000-fold dilution): 10 mM)	0.425
COc1cc2c(Oc3ccc4[nH]c(C)cc4c3F)ccnc2cc1OCC1(N)CC1.Cl.Cl (library stock concentration (final ~1000-fold dilution): 10 mM)	1.74

// each compound listed below needs its NF-kB SEAP reporter activity
1. Cl.OCCNCc1ccc(OCc2ccc(F)cc2)c(OCc2ccc(F)cc2)c1 (library stock concentration (final ~1000-fold dilution): 10 mM)
2. CC(O)C(=O)O.CN1CCN(c2ccc3nc(-c4c(N)c5c(F)cccc5[nH]c4=O)[nH]c3c2)CC1 (library stock concentration (final ~1000-fold dilution): 10 mM)

# output
[0.354, 0.219]
